Value source: patent US20150291593A1

As a worked illustration, we turn to pIC50 data collected for p110γ (Homo sapiens).
pIC50: −log10 of the molar value.
quantity name: pIC50

                                   compound  endpoint_value
0  N#Cc1c[nH]c2ncnc(N3CCC[C@H]3c3nn4cccc4c(=O)n3-c3cccc(F)c3)c12 [Compound 16]            7.07
1  O=c1c2c(Cl)ccn2nc([C@@H]2CCCN2c2ncnc3[nH]cnc23)n1CC1CC1 [Compound 256]            7.09
2  CC(Nc1ncnc(N)c1C#N)c1cn2ccc(Cl)c2c(=O)n1-c1cc(F)cc(F)c1 (stereo not drawn) [Compound 81]            7.15

---

# measurement target: p110γ (Homo sapiens, UniProt P48736)
# Construct: purchased Invitrogen
# Sequence (P48736 whole entry, species assumed): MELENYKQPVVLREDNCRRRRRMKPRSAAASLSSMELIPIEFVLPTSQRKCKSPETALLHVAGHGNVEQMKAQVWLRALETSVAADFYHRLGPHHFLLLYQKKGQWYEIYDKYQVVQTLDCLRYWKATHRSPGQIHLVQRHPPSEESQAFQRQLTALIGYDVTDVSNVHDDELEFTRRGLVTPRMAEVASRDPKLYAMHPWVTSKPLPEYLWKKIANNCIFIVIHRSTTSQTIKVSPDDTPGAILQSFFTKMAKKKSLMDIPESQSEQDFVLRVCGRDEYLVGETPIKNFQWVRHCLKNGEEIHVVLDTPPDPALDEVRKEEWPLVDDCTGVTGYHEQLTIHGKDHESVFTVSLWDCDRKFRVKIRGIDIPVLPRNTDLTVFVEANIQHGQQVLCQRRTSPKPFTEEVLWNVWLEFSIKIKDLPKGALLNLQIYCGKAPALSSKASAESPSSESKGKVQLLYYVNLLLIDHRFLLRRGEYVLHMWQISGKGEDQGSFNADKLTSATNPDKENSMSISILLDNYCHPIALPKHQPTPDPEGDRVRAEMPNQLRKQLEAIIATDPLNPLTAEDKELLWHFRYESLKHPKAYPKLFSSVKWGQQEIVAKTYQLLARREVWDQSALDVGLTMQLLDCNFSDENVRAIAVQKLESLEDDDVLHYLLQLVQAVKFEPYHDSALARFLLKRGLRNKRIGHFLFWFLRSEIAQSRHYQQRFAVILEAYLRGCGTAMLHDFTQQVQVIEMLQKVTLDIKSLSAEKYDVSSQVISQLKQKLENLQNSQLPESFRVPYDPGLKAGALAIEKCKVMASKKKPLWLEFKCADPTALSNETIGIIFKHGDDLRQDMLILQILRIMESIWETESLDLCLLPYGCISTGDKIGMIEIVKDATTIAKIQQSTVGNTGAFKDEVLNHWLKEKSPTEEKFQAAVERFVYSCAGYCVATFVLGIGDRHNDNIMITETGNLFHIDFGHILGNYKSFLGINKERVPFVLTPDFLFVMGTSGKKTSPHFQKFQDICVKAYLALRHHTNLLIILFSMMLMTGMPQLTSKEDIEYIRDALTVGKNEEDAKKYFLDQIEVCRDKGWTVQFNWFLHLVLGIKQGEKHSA
# protocol description: Transcreener KINASE Assay, kinase inhibition of p110γ
# Type: biochemical
# experimental conditions: @ 1 uM
quantity name: PI3Kγ IH % @ 1 uM (%)

a = N#Cc1c[nH]c2ncnc(N3C[C@@H](F)C[C@H]3c3nn4ccc(Cl)c4c(=O)n3Cc3ccccn3)c12 [Compound 158]
b = N#Cc1c[nH]c2ncnc(N3CCC[C@@H]3c3nn4cccc4c(=O)n3-c3ccccc3)c12 [Compound 22]
c = N#Cc1c(N)ncnc1N1CCC[C@H]1c1nn2cccc2c(=O)n1-c1ccccc1 [Compound 5]
Problem: Sort the entries above by PI3Kγ IH % @ 1 uM, smallest first. Please list the labels according to the requested order.
Solution: b, c, a
(b: 21.2%, c: 69.6%, a: 100%)

P = N#Cc1c[nH]c2ncnc(N3CCC[C@H]3c3nn4cccc4c(=O)n3-c3cccc(Cl)c3)c12 [Compound 15]
Q = COc1cccc(-n2c([C@@H]3CCCN3c3ncnc(N)c3Cl)nn3cccc3c2=O)c1 [Compound 21]
Problem: Which has the higher PI3Kγ IH % @ 1 uM, P or Q ? Choose, then provide that item's label.
Solution: P
(P: 72.0%, Q: 30.4%)

P = COc1cccc(-n2c([C@@H]3CCCN3c3ncnc4[nH]cc(C#N)c34)nn3cccc3c2=O)c1 [Compound 9]
Q = Nc1nc(N2CCC[C@H]2c2nn3cccc3c(=O)n2-c2ccccc2)c2cn[nH]c2n1 [Compound 11]
Problem: Which has the higher PI3Kγ IH % @ 1 uM, P or Q ? Choose, then provide that item's label.
Solution: P

---

# measurement target: p110δ/p85α (Homo sapiens)
# Sequence (O00329 whole entry, species assumed): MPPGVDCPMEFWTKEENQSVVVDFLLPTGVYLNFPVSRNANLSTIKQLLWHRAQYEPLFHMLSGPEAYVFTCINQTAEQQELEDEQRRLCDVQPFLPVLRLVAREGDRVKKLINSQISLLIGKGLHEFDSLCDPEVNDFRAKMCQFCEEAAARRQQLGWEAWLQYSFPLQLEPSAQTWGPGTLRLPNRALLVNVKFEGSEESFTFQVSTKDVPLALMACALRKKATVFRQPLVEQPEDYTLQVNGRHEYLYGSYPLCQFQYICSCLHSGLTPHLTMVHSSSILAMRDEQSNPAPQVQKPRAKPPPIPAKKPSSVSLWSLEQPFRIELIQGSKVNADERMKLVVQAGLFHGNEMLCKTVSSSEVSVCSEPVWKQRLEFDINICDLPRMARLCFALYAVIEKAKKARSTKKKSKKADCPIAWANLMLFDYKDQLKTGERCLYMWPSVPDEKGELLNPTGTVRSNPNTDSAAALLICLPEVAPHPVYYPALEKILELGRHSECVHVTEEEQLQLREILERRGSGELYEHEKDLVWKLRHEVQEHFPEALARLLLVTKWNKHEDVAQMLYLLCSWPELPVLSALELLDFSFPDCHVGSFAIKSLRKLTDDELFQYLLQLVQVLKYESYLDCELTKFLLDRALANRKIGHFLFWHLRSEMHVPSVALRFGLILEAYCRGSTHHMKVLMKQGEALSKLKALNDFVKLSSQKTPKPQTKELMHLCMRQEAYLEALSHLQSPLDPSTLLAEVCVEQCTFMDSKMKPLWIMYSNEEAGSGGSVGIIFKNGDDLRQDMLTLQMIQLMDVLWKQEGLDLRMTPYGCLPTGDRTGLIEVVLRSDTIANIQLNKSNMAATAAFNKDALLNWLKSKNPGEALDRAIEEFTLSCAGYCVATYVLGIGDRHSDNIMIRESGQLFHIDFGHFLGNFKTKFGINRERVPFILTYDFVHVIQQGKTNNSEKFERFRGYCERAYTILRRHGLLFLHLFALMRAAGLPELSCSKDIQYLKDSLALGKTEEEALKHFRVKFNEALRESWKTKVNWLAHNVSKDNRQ
# Sequence (P27986 whole entry partner, species assumed): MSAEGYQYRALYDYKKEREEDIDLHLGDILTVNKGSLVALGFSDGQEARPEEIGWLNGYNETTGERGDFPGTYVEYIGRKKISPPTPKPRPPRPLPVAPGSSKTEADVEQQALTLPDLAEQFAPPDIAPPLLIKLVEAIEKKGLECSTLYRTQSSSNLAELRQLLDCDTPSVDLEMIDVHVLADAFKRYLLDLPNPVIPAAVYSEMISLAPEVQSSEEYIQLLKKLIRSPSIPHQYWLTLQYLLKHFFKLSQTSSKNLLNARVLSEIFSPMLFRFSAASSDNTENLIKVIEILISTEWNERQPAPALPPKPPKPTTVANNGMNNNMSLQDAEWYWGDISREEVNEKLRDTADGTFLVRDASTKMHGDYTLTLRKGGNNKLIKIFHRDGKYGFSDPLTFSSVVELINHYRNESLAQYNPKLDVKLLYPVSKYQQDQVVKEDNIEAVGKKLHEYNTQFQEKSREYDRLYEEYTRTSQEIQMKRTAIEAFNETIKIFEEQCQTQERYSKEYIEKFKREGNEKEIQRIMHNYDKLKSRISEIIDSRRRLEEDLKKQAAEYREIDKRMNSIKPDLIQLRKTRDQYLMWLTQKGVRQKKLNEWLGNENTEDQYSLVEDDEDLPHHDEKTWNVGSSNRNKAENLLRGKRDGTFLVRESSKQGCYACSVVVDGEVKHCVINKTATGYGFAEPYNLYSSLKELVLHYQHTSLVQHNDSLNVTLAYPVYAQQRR
# protocol description: Transcreener KINASE Assay, kinase inhibition of p110δ/p85α
# experimental conditions: read-out: PI3Kδ IC50
quantity name: IC50

Some molecules with known IC50 results, for comparison:
>>> df
                           structure_string  endpoint_value
0  Nc1ncc(-c2c[nH]c3ncnc(N4CC[C@H]4c4nn5ccc(Cl)c5c(=O)n4-c4ccccc4)c23)cn1        < 0.5 nM
1  COc1ccc(-c2c[nH]c3ncnc(N4CC[C@H]4c4nn5ccc(F)c5c(=O)n4-c4ccccc4)c23)cn1       < 0.46 nM
2  Cc1ccn2nc([C@@H]3CCCN3c3ncnc4[nH]cc(C#N)c34)n(-c3ccccc3)c(=O)c12           ~1 nM
3  COc1ncc(-c2c[nH]c3ncnc(N4CC[C@H]4c4nn5ccc(F)c5c(=O)n4-c4ccccc4)c23)cn1       < 0.46 nM

Problem: Recorded IC50 of `Nc1ccc(-c2c[nH]c3ncnc(N4CC[C@H]4c4nn5ccc(F)c5c(=O)n4-c4ccccc4)c23)cn1` , please.
Solution: < 0.46 nM

---

PI3Kδ IH % @ 1 uM values by entry
# measurement target: p110δ/p85α (Homo sapiens)
# Construct: purchased Invitrogen
# protocol description: Transcreener KINASE Assay, kinase inhibition of p110δ/p85α
# Assay type: biochemical
# experimental conditions: @ 1 uM

>>> df
                                   compound         measurement_target      quantity_name  endpoint_value
0  CC(Nc1ncnc(N)c1C#N)c1cn2ccc(Cl)c2c(=O)n1-c1cc(F)cc(F)c1 (stereo not drawn) [Compound 81]  p110δ/p85α (Homo sapiens)  PI3Kδ IH % @ 1 uM           >100%
1  CC(Nc1ncnc2[nH]cnc12)c1cn2ccc(Cl)c2c(=O)n1-c1cc(F)cc(F)c1 (stereo not drawn) [Compound 80]  p110δ/p85α (Homo sapiens)  PI3Kδ IH % @ 1 uM           >100%
2  O=c1c2cccn2nc([C@@H]2CCCN2c2ncnc3[nH]cc(-c4cn[nH]c4)c23)n1-c1ccccc1 [Compound 99]  p110δ/p85α (Homo sapiens)  PI3Kδ IH % @ 1 uM           >100%
3  O=c1c2cccn2nc([C@@H]2CCCN2c2ncnc3[nH]cc(Cl)c23)n1-c1ccccc1 [Compound 3]  p110δ/p85α (Homo sapiens)  PI3Kδ IH % @ 1 uM           >100%
4  O=c1c2cccn2nc([C@@H]2CCCN2c2ncnc3[nH]cnc23)n1-c1ccc(F)cc1 [Compound 14]  p110δ/p85α (Homo sapiens)  PI3Kδ IH % @ 1 uM           90.7%

In the following, a different compound is considered.
Problem: Recorded PI3Kδ IH % @ 1 uM of O=c1c2c(Cl)ccn2nc([C@@H]2CC(F)(F)CN2c2ncnc3[nH]cnc23)n1Cc1ccccn1 [Compound 159] , please.
Solution: 85.0%

---

# measurement target: p110γ (Homo sapiens, UniProt P48736)
# Construct: purchased Invitrogen
# protocol description: Transcreener KINASE Assay, kinase inhibition of p110γ
# Assay type: biochemical
# experimental conditions: @ 1 uM
quantity name: PI3Kγ IH % @ 1 uM (%)

>>> df
                                   molecule      quantity_name  endpoint_value
0  O=c1c2cccn2nc([C@@H]2CCCN2c2ncnc3[nH]cnc23)n1-c1ccccc1  PI3Kγ IH % @ 1 uM            92.4
1  COc1cccc(-n2c([C@@H]3CCCC3c3ncnc4[nH]cnc34)nn3cccc3c2=O)c1 (stereo partly shown)  PI3Kγ IH % @ 1 uM            68.6
2  O=c1c2cccn2nc([C@@H]2CCCN2c2ncnc3[nH]cc(Cl)c23)n1-c1ccccc1  PI3Kγ IH % @ 1 uM            82.5
3  O=c1c2cccn2nc([C@@H]2CCCN2c2ncnc3[nH]cnc23)n1-c1cccc(F)c1  PI3Kγ IH % @ 1 uM            71.9
4  C=Cc1c[nH]c2ncnc(N3CCC[C@H]3c3nn4cccc4c(=O)n3-c3ccccc3)c12  PI3Kγ IH % @ 1 uM            87.9
